The entries below are paired with their reported composite z-score.
Assay: probe aDKK1 binding to arrayed compounds – biochemical, biotinylated probe, 635/667 nm fluorescence, primary screen (AID 1099);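 note: score merges 667nm spot fluorescence with signal to noise across triplicate slides; reference of the scale not given here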
Details: small-molecule microarray, higher = more signal

{"Compound": "CN1C(=O)C2C=CC(C(O)c3ccc(F)cc3)N(N3CCCCC3)C2C1=O (stereo not drawn)", "composite z-score": 1.3}
{"Compound": "C=CCN1C(=O)[C@@]2(O[C@@H](CCn3cc([C@H](O)c4ccccc4)nn3)[C@H]([Si](C)(C)c3ccc(OC)cc3)[C@H]2C)c2cc(NC(=O)c3ccc(OC)cc3)ccc21", "composite z-score": 0.041}
{"Compound": "C=CCNC(=O)[C@H]1[C@@H]2C(=O)O[C@@H](c3ccccc3)[C@@H](c3ccccc3)N2[C@@H](c2ccc(OCCO)cc2)[C@]12C(=O)N(C(=O)OCCOC)c1ccc(C#CC3=CCCCC3)cc12", "composite z-score": 0.0825}
{"Compound": "O=C(CS)NCCCCCNC(=O)[C@@H]1C[C@@H]2C(=O)N3CCC[C@H]3C(=O)N2[C@@H]1c1ccc(O)cc1", "composite z-score": 0.233}
{"Compound": "COCCOC(=O)N1C(=O)[C@@]2(c3cc(C#Cc4ccc(OC)cc4)ccc31)[C@H](C(=O)N1CCc3cc(OC)c(OC)cc3C1)[C@H]1C(=O)O[C@H](c3ccccc3)[C@H](c3ccccc3)N1[C@@H]2c1ccc(OCCO)cc1", "composite z-score": 0.218}
{"Compound": "C=CC[C@]1(C(=O)NCC(O)CO)N=C(c2ccc(OCCCO)cc2)O[C@H]1c1ccccc1N=[N+]=[N-] (stereo partly drawn)", "composite z-score": 0.731}
{"Compound": "C=CCN1C(=O)[C@@]2(O[C@@H](CCO)[C@H]([Si](C)(C)c3ccc(OC)cc3)[C@H]2C)c2cc(NC(=O)[C@H](C)O)ccc21", "composite z-score": -0.474}
{"Compound": "CN1C(=O)C2C=CC(C(O)c3cccc4ccccc34)N(NC(=O)OC(C)(C)C)C2C1=O (stereo not drawn)", "composite z-score": 1.33}

---

Test: probe aWnt5a binding to arrayed compounds – biochemical, biotinylated probe, 635/667 nm fluorescence, primary screen (AID 1113);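 note: score merges 667 nm fluorescence intensity with signal-to-noise per printed feature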
Settings: small-molecule microarray, higher = more signal
Criterion: composite z-score meeting or surpassing 0.04. Met: true. Not met: false.

{"Compound": "O=[N+]([O-])c1ccc(C[n+]2ccc(-c3ccc(CO)cc3)cc2)o1", "Assigned class": "false"}
{"Compound": "NC(=O)[C@@H]1[C@H]2C(=O)O[C@H](c3ccccc3)[C@H](c3ccccc3)N2[C@H](c2ccccc2OCCO)[C@@]12C(=O)Nc1ccc(C#CCCO)cc12", "Assigned class": "false"}
{"Compound": "O=C1O[C@H](c2ccccc2)[C@H](c2ccccc2)N2[C@H]1[C@@H](C(=O)N1CCN(c3ncccn3)CC1)[C@]1(C(=O)Nc3ccc(C#CCCO)cc31)[C@H]2c1ccc(OCCO)cc1", "Assigned class": "true"}
{"Compound": "CCCCC=C[C@@H](NC(=O)CCc1ccccc1)c1ccccc1", "Assigned class": "true"}
{"Compound": "COC(=O)c1c(CC[C@@H](CO)NC(=O)N[C@@H](C)Cn2cc(C3(O)CCCC3)nn2)oc(C(C)=O)c1C(=O)OC", "Assigned class": "false"}
{"Compound": "COC(=O)[C@]1(Cc2ccccc2CN=[N+]=[N-])N=C(c2ccc(OCCCO)cc2)O[C@@H]1c1ccccc1CN=[N+]=[N-]", "Assigned class": "false"}
{"Compound": "CN(C)CCCCCCNC(=O)[C@@H]1C[C@@H]2C(=O)NCC(=O)N2[C@@H]1c1ccc(O)cc1", "Assigned class": "true"}
{"Compound": "C[C@H]1ON(c2ccccc2)[C@@H](c2ccccc2)[C@@H]1C(=O)N1C(=O)OC[C@@H]1c1ccccc1", "Assigned class": "false"}
{"Compound": "CC(C)NC(=O)[C@@]1(Cc2ccccc2I)c2ccccc2C(=O)N(Cc2ccccc2C(F)(F)F)[C@H]1c1ccc(CO)cc1", "Assigned class": "false"}
{"Compound": "O=C(O)[C@@]1(Cc2ccccc2)COC(c2ccc(OCCCO)cc2)=N1", "Assigned class": "false"}
{"Compound": "O=C1N(CCS(=O)(=O)c2ccccc2)Cc2ccccc2C[C@@]12COC(c1ccc(OCCCO)cc1)=N2", "Assigned class": "true"}
{"Compound": "CCOC(=O)C[C@H]1[C@H](OC(=O)c2ccccc2-c2ccccc2)[C@@H](NC(=O)c2ccccc2)c2cc(OCCCO)ccc2N1C(=O)Cc1ccc(OC)cc1", "Assigned class": "false"}
{"Compound": "O=C(CS)NCCCCCNC(=O)[C@@H]1C[C@@H]2C(=O)N3CCC[C@H]3C(=O)N2[C@@H]1c1ccc(O)cc1", "Assigned class": "false"}
{"Compound": "COC(=O)[C@@]1(Cc2ccccc2)[C@H]2c3cc(C(=O)N4CCCC4)n(Cc4ccccc4)c3C[C@H]2CN1C(=O)c1ccccc1", "Assigned class": "false"}
{"Compound": "CC[C@@H]1[C@@H]2C3C(=O)N(CC)C(=O)C3CC(=O)[C@@H]2[C@H](c2ccc(C)cc2)N1S(=O)(=O)c1ccc(C)cc1 (stereo partly drawn)", "Assigned class": "false"}
{"Compound": "COCCOC(=O)N1C(=O)[C@@]2(c3cc(C#CCC(C(=O)OC)C(=O)OC)ccc31)[C@H](C(=O)N1CCCCCCC1)[C@H]1C(=O)O[C@H](c3ccccc3)[C@H](c3ccccc3)N1[C@@H]2c1ccc(O)cc1", "Assigned class": "true"}
{"Compound": "COc1ccc(C#Cc2ccc3c(c2)[C@]2(C(=O)N3)[C@H](C(=O)O)[C@H]3C(=O)O[C@H](c4ccccc4)[C@H](c4ccccc4)N3[C@@H]2c2ccc(OCCO)cc2)cc1", "Assigned class": "false"}
{"Compound": "CN(C)C(=O)[C@@]1(Cc2ccccc2N=[N+]=[N-])N=C(c2ccc(OCCCO)cc2)O[C@H]1c1ccccc1N=[N+]=[N-]", "Assigned class": "false"}
{"Compound": "COCCOC(=O)N1C(=O)[C@@]2(c3cc(C#Cc4ccc(OC)cc4)ccc31)[C@H](C(N)=O)[C@H]1C(=O)O[C@H](c3ccccc3)[C@H](c3ccccc3)N1[C@@H]2c1ccc(OCCO)cc1", "Assigned class": "false"}
{"Compound": "COc1ccc([Si](C)(C)[C@@H]2[C@@H](CC(=O)N(CCO)Cc3ccccc3)O[C@]3(C(=O)N(C)c4c(Br)cc(C)cc43)[C@H]2C)cc1", "Assigned class": "true"}
{"Compound": "CO[C@H]1O[C@H](CO)[C@@H](OC(=O)Nc2ccc(C(F)(F)F)cc2)[C@H](OC(=O)Nc2ccccc2)[C@H]1OC(=O)Nc1ccccc1", "Assigned class": "true"}
{"Compound": "CCOC(=O)C[C@H]1[C@H](OC(=O)c2cc3ccccc3oc2=O)[C@@H](NC(=O)c2ccc3ccccc3n2)c2cc(OCCCO)ccc2N1C(=O)c1ccc2ccccc2n1", "Assigned class": "true"}
